The values you see were collected from ChEMBL document CHEMBL3425473.

- Tested on: Rattus norvegicus
- assayMethodText: In vivo inhibition of COX-2 activity in Complete Freund's adjuvant-induced arthritic albino Wistar rat serum assessed as decrease in peroxidase activity measured as TMPD oxidation rate at 10 mg/kg administered via gavage daily started from day 7 and continued till day 21 after CFA injection by colorimetric analysis
- Type: functional, organism-based
- Design: dose 10 mg/kg
Active and inactive are the calls of the source. The calls are words filed in the database; no cut-off is given here.
testReadout: inhibition

>>> readoutvalue("COC(=O)[C@]1(C)[C@@H]2CC[C@]3(C)[C@H](C(=O)C=C4[C@@H]5[C@@H](C)[C@H](C)CC[C@]5(C)CC[C@]43C)[C@@]2(C)CC[C@H]1OC(=O)Cc1ccccc1Nc1c(Cl)cccc1Cl")
"Active"
>>> readoutvalue("COC(=O)[C@]1(C)[C@@H]2CC[C@]3(C)[C@H](C(=O)C=C4[C@@H]5[C@@H](C)[C@H](C)CC[C@]5(C)CC[C@]43C)[C@@]2(C)CC[C@H]1OC(=O)C(C)c1ccc(CC(C)C)cc1 (mixture of isomers)")
"Active"
>>> readoutvalue("COC(=O)[C@]1(C)[C@@H]2CC[C@]3(C)[C@H](C(=O)C=C4[C@@H]5[C@@H](C)[C@H](C)CC[C@]5(C)CC[C@]43C)[C@@]2(C)CC[C@H]1OC(=O)C(C)c1ccc2cc(OC)ccc2c1 (mixture of isomers)")
"Active"
>>> readoutvalue("COC(=O)[C@]1(C)[C@@H]2CC[C@]3(C)[C@H](C(=O)C=C4[C@@H]5[C@@H](C)[C@H](C)CC[C@]5(C)CC[C@]43C)[C@@]2(C)CC[C@H]1OC(=O)Cc1c(C)n(C(=O)c2ccc(Cl)cc2)c2ccc(OC)cc12")
"Active"
